Tested on: PfAP2-LT AP2 domain (GST-tagged)
Test: gcPBM binding intensity (ln(normalized median fluorescence intensity)); higher = stronger DNA binding
The full ranking holds about 25,000 sequences; the median of “ln(normalized median fluorescence intensity)” is about 8.9, and the highest 2% start at about 10. What follows is part of a selection rich in the highest values, with near analogues and random picks from the rest.
List of gcPBM binding intensity (ln) values.
Kindly provide the number alone.

Completed entries (count: 5):
> print(dat)
                     macromolecule.sequence                 system.under.test  observed.measurement
1  AATAGAATAATCCTTACACACACACGCGCACGAATA [CACACA_site6365]  PfAP2-LT AP2 domain (GST-tagged)                  9.78
2  TAAAATAAAACAAACACACACACACGGACACAAAAA [CACACA_site7754]  PfAP2-LT AP2 domain (GST-tagged)                  10.4
3  TACAGACATAGACACACACACACGCATAAAAAAAAA [CACACA_site6820]  PfAP2-LT AP2 domain (GST-tagged)                    10
4  AAAAAAAAAAAAAACACACACACAAAATAAACAAAC [CACACA_site2720]  PfAP2-LT AP2 domain (GST-tagged)                  9.66
5  AAAAAAAAAAAAAAAACACACAAACAAATGAATAAA [CACACA_site5769]  PfAP2-LT AP2 domain (GST-tagged)                  8.89

Return reported gcPBM binding intensity (ln); argument: TACACCCATAGACACACACACACGCATAAAAAAAAA [CACACA_site8428] 9.95

Return reported gcPBM binding intensity (ln); argument: CAGACGCACGTATTTGCACACATTGCCACGTAATTA [CACACA_site3349] 9.28

Return reported gcPBM binding intensity (ln); argument: ATTCATATGAAACACACACACACACCCATAAAAAAA [CACACA_site3246] 10.2

Return reported gcPBM binding intensity (ln); argument: AAAAAAAAAAAAAACACACAAACAAATGAATAAATA [CACACA_site3300] 8.99
